# EXPERIMENT_NOTES: Cytotoxicity against mouse J774 cells assessed as reduction of cell viability after 48 hrs by resazurin dye-based fluorometric method
# Format: toxicity
PROPERTY_NAME: CC50 at 48 h (µM)
Field: numeric (µM). Do not append units.

See these solved cases before continuing.
- LINE_NOTATION: "CC(=O)NC[C@]1(C)CCC[C@]2(C)c3ccc(C(C)C)cc3CC[C@@H]12"
  UNITS_OF_MEASURE: "µM"
  CC50 at 48 h: 21.6
- LINE_NOTATION: "CC(C)c1ccc2c(c1)CC[C@H]1[C@](C)(CN)CCC[C@]21C"
  UNITS_OF_MEASURE: "µM"
  CC50 at 48 h: 14.5
- LINE_NOTATION: "CC(=O)NC[C@]1(C)CCC[C@]2(C)c3ccc(C(C)C)cc3C(=O)C[C@@H]12"
  UNITS_OF_MEASURE: "µM"
  CC50 at 48 h: 72.3

The measured CC50 at 48 h associated with `CC(=O)NC[C@]1(C)CCC[C@]2(C)c3ccc(C(C)C)cc3-c3[nH]c4ccc(F)cc4c3[C@@H]12` reads 28.8

The measured CC50 at 48 h associated with `CC(=O)NC[C@]1(C)CCC[C@]2(C)c3cc([N+](=O)[O-])c(C(C)C)cc3C(=O)C[C@@H]12` reads 39.2

The measured CC50 at 48 h associated with `CCCCCCCCCCCCCCCCOP(=O)([O-])OCC[N+](C)(C)C` reads 136

The measured CC50 at 48 h associated with `CC(=O)NC[C@]1(C)CCC[C@]2(C)c3cc([N+](=O)[O-])c(C(C)C)cc3CC[C@@H]12` reads 13.7
